SYSTEM NAME: N-cadherin expressed on transfected 3T3 cells
ASSAY REMARKS: cell-based or functional assay
ENDPOINT LABEL: percent inhibition of neurite outgrowth, peptide at 100 µg/ml
Give your result as the value with the unit written after it.

[
  {
    "BINDER": "Ac-CIDPVNC-NH2 (not fully specified (bridges); printed as N-Ac-CIDPVNC-NH2; also: cyclic peptide, linkage not given here) [N-Ac-CIDPVNC-NH2]",
    "MEASUREMENT": "75.8%"
  },
  {
    "BINDER": "Ac-WLKIDAVNGQI-NH2 [N-Ac-WLKIDAVNGQI-NH2]",
    "MEASUREMENT": "12.4%"
  }
]

Next up:
For the binder Ac-NLKIDPVNGQI-NH2 [N-Ac-NLKIDPVNGQI-NH2] , report percent inhibition of neurite outgrowth, peptide at 100 µg/ml.
67.8%

Measured values drawn from patent US20030109454A1 for this set.
